// provenance: the supplement of paper PMC12455559

Answer each item with its documented purified protein yield per well.
# protocol: purified protein yield per well (BCA); higher = higher soluble expression

[ask] Give its purified protein yield per well value. Item: GFGGGMIYYPTDTSQGTFGGIAISPGYTAQFSVELSWMGPWLASHGFVVIGIETNSPTDFDQARGTQLLAALDYLTQQSPVRTRVDASRLAVAGHSMGGGGALNAAIRRPSLKATVGITPFLPSSNLANDHVPTMLIAGQADTVVSTSSVINQYNSLPATTKSVFLEVAGGDHGFMVGRPNTVMVRTMLPFLKIFVDNDSRYSKFLCPLMDSSGITQYRST [ESM170]
[reply] < 25 µg

[ask] Give its purified protein yield per well value. Item: DGPYDVDWIYESDGLRNGPYYLGATLYYPINAPEPLASIVIVPGWGMPESTMQDWGPFFASWGIIAMTIGTNNPSTDWPEDRAEALLDAIETIKQENDRIDSPVNGRIDLNSFAVSGWSMGGGGAQLAAVMEPTLKAVIALCPWLDNWVLEPDDLNHSVPTLIFSGQYDVNAPPYLHANIHYNYTPSTTDKLLFEVEYGDHYVANGPNGGSGYVGDKALEWIN [TEP053]
[reply] < 25 µg
